System: SH-SY5Y cells
Experiment: Concentration screening for nontoxic concentration
Assay type: cell-based, human
Conditions: 24 h, MTT

COMPOUND	UNIT INFO	Highest nontoxic concentration
O=C(NCC1CCN(Cc2ccccc2)CC1)c1ccc2[nH]c(-c3ccccc3O)nc2c1 [Compound 1]	µM	2.5
O=C(NCC1CCN(Cc2ccccc2)CC1)c1cc2ccccc2o1 [Compound 4]	µM	30
COc1cccc2cc(C(=O)NCC3CCN(Cc4ccccc4)CC3)oc12 [Compound 6]	µM	20
O=C(NCCN1CCN(Cc2ccccc2)CC1)c1cc2ccccc2o1 [Compound 5]	µM	30
COc1cccc2cc(C(=O)NCCN3CCN(Cc4ccccc4)CC3)oc12 [Compound 7]	µM	30
O=C(NCCN1CCN(Cc2ccccc2)CC1)c1ccc2[nH]c(-c3ccccc3O)nc2c1 [Compound 2]	µM	5

Entry source: paper PMC6127844
